- test.system: human Cot catalytic domain (30-397 amino acids) (Homo sapiens, UniProt P41279)
- Construct: Purified recombinant human Cot catalytic domain (30-397 amino acids) was purchased from Cama Biosciences; purchased Cama Biosciences (so in the source)
- Sequence (P41279 30-397): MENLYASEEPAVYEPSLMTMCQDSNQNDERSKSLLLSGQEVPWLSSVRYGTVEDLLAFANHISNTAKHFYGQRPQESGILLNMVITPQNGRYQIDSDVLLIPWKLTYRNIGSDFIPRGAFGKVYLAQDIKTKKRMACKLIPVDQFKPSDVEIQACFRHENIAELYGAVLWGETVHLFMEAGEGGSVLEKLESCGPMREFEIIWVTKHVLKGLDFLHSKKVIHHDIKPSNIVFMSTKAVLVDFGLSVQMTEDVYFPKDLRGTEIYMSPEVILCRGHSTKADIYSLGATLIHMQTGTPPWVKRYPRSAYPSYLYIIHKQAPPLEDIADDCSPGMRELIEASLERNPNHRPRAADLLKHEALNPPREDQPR
- experiment.summary: High Throughput Cot Biochemical Assay (KinEASE TR-FRET)
- run.parameters: Cot biochemical HTRF (KinEASE TR-FRET) assay; read-out: IC50 HTRF
- Source text: Example 61: High Throughput Cot Biochemical Assay In this assay, Cot-catalyzes the phosphorylation of a XL665-labeled peptide substrate. Europium conjugated phospho-tyrosine specific antibody binds the resulting phosphorylated peptide. […] Purified recombinant human Cot catalytic domain (30-397 amino acids) was purchased from Cama Biosciences. […]
pIC50: −log10 of the molar value.
Use true (1) when the recorded pIC50 is no lower than 8; use false (0) when it is lower.

compound | qualitative.label
CC(C)n1cc([C@@H](Nc2cc(Cl)c3ncc(C#N)c(Nc4ccc(F)c(Cl)c4)c3c2)c2cccc(N(C)S(C)(=O)=O)c2)nn1 | true (1)
N#Cc1cnc2c(Cl)cc(N[C@@H](c3ccccc3)c3cn(-c4cccnc4)nn3)cc2c1Nc1ccc(F)c(Cl)c1 | false (0)
CC(C)(C)N1CCC(n2cc([C@@H](Nc3cc(Cl)c4ncc(C#N)c(N[C@H]5CCCc6ccccc65)c4c3)c3ccccc3)nn2)CC1 | false (0)

Decide: pIC50 of COC1CN(C(=O)c2cccc([C@H](Nc3cc(Cl)c4ncc(C#N)c(Nc5ccc(F)c(Cl)c5)c4c3)c3cn(C4CCN(C(C)(C)C)CC4)nn3)c2)C1 >= 8?
true (1)

Check this compound for pIC50 at or above 8: Cn1cnnc1C(Nc1cc(Cl)c2ncc(C#N)c(Nc3ccc(F)c(Cl)c3)c2c1)c1ccc(F)cc1 (stereo not drawn)
false (0)
